Ref: patent US10478425B2

- Experimental system: Human AMPK α2β2γ1 (Homo sapiens, UniProt O43741+P54646)
- Construct: The full length cDNAs of human AMPK β2 (NM_005399.3) and human AMPK α2 (NM_006252.3); The full length cDNAs of human AMPK β2 (NM_005399.3); the full length cDNA of human AMPK γ1 (NM_002733.3) had been inserted into pET28b(+); 6×His (N); made in house; host or cells: Escherichia coli BL21 CodonPlus (DE3)-RIL
- Sequence (P54646 whole entry): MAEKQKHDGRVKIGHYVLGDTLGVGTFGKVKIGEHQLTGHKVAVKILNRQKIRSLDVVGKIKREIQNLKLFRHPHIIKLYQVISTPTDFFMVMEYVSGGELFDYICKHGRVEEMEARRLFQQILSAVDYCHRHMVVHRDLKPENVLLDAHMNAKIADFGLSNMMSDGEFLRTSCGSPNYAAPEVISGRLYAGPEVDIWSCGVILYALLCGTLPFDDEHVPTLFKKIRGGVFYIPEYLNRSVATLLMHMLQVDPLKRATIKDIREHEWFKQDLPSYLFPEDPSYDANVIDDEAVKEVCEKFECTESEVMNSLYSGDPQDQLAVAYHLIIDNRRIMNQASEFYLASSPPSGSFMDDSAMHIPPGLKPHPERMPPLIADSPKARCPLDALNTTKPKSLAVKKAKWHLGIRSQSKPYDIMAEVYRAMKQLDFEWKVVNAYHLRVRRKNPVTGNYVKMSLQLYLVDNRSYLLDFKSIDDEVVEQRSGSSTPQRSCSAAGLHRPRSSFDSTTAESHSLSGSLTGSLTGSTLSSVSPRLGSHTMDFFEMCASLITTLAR
- Sequence (O43741 whole entry): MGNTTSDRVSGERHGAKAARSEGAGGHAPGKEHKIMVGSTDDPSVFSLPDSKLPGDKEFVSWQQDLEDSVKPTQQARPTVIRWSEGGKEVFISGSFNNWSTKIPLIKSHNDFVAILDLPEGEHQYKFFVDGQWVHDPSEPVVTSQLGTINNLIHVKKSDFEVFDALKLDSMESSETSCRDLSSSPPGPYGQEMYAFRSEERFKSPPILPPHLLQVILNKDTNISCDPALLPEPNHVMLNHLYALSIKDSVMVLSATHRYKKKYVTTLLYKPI
- Sequence (P54619 whole entry partner): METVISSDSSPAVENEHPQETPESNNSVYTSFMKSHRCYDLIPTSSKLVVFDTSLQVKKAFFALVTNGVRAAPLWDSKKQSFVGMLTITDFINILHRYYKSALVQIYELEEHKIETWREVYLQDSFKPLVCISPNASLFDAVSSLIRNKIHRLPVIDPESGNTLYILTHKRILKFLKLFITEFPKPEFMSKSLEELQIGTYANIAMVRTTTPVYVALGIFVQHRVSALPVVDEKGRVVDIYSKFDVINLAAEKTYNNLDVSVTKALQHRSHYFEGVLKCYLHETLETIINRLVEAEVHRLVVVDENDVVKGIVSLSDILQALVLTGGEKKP
- Protocol summary: Test Example 2: activation of phosphorylated human AMPK α2β2γ1 (mobility-shift kinase assay, FL-Peptide 7)
- Type: biochemical
- Measurement conditions: compound concentration showing 150% relative to the control (100%); human AMPK α2β2γ1 phosphorylated with CaMKK2
Quantity kind: EC150 (nM)
One number for each entry, in nM.

Solved entries (count: 5):
| Compound | Reading |
| --- | --- |
| O[C@@H]1CO[C@H]2[C@@H]1OC[C@H]2Oc1cc2nc(-c3ccc(-c4ccc(C5=NCCN5)cc4)cc3)c(F)cc2[nH]1 [Compound I-1-38] | 0.99 |
| CCO[C@H]1[C@@H](CO)OC[C@H]1Oc1cc2nc(-c3ccc(-c4ccc(N=S(C)(C)=O)cc4)cc3)c(F)cc2[nH]1 [Compound I-2-55] | 19 |
| CC(=O)N[C@H]1CC[C@H](c2ccc(-c3nc4cc(O[C@@H]5CO[C@H]6[C@@H]5OC[C@H]6O)[nH]c4cc3F)cc2)CC1 [Compound I-1-41] | 7.8 |
| COCCOCCOc1ccc(-c2ccc(-c3nc4cc(O[C@@H]5CO[C@H]6[C@@H]5OC[C@H]6O)[nH]c4cc3F)cc2)cc1 [Compound I-2-48] | 1.1 |
| O=C(Nc1ccc(-c2ccc(-c3nc4cc(O[C@@H]5CO[C@H]6[C@@H]5OC[C@H]6O)[nH]c4cc3F)cc2)cc1)[C@@H]1C[C@@H]1F [Compound I-2-05] | 6.8 |

Look at each compound and report its EC150.
1. CONC(=O)c1ccc(-c2ccc(-c3nc4cc(O[C@@H]5CO[C@H](CO)C5)[nH]c4cc3F)cc2)cc1 [Compound I-2-86]
2. O=C1NCCN1c1ccc(-c2ccc(-c3nc4cc(O[C@@H]5CO[C@H]6[C@@H]5OC[C@H]6O)[nH]c4cc3F)cc2)cc1 [Compound I-1-58]

1. 0.53
2. 1.3

Look at each compound and report its EC150.
1. CS(C)(=O)=Nc1ccc(-c2ccc(-c3nc4cc(O[C@@H]5CC[C@@H](CO)OC5)[nH]c4cc3F)cc2)cc1 [Compound I-1-06]
2. O[C@@H]1CO[C@H]2[C@@H]1OC[C@H]2Oc1cc2nc(-c3ccc(-c4ccc(Oc5cccnc5)cc4)cc3)c(F)cc2[nH]1 [Compound I-2-36]
3. Cc1cc(-c2ccc(N=S(C)(C)=O)cc2)ccc1-c1nc2cc(O[C@@H]3CO[C@H]4[C@@H]3OC[C@H]4O)[nH]c2cc1F [Compound I-1-48]
4. O[C@@H]1CO[C@H]2[C@@H]1OC[C@H]2Oc1cc2nc(-c3ccc(-c4ccc(OC5COC5)cc4)cc3)c(F)cc2[nH]1 [Compound I-1-28]

[19, 43, 2.9, 15]
